Values were extracted from the METLIN SMRT retention time set (Domingo-Almenara et al. 2019).

Could you please report measured RP-LC retention time for the items listed next?
# Protocol details: gradient 5% acetonitrile 3 min, to 50% in 2 min, to 85% in 15 min, held 3 min, 100 µL/min
# Details: column: Zorbax Extend-C18 2.1 x 50 mm; eluents: water / acetonitrile, 0.1% formic acid
Express the result in s but write the number alone.

Task: Return RP-LC retention time for the following compound: CCNc1cc(N2CCC(CCC(=O)NCc3cccs3)CC2)ncn1
Output: 627

Task: Return RP-LC retention time for the following compound: O=C(NCc1cccnc1)c1nc(CCS(=O)(=O)c2ccccc2)no1
Output: 593

Task: Return RP-LC retention time for the following compound: COc1ccc(N2CCN(c3cc(SCC(=O)NCCC4=CCCCC4)ncn3)CC2)cc1
Output: 1080

Task: Return RP-LC retention time for the following compound: O=C(NCc1ccc2c(c1)OCO2)c1c(O)c2cccnc2n(Cc2ccccc2)c1=O
Output: 1290

Task: Return RP-LC retention time for the following compound: CCSc1nc2ccc(NS(=O)(=O)Cc3ccc(Cl)cc3)cc2s1
Output: 1080

Task: Return RP-LC retention time for the following compound: Cc1cc(S(=O)(=O)N(C)CC2CCOCC2)ccc1F
Output: 879

Task: Return RP-LC retention time for the following compound: Cc1ccc(NC(=O)c2cnc3c(c2)c(=O)n(C)c(=O)n3-c2ccc(F)cc2)cc1
Output: 936

Task: Return RP-LC retention time for the following compound: Cc1ccc(S(=O)(=O)CCC(=O)N2CCCC2c2nc(-c3ccc(Cl)cc3)no2)cc1 (configuration not stated)
Output: 1060

Task: Return RP-LC retention time for the following compound: Cc1ccc(-c2cc3c4nnc(SCC(=O)Nc5cc(F)ccc5C)n4ccn3n2)cc1C
Output: 1080

Task: Return RP-LC retention time for the following compound: COC(=O)C(C)NC(=O)N1CCN(c2nc3ccccc3n2Cc2ccccc2)CC1 (configuration not stated)
Output: 659

Task: Return RP-LC retention time for the following compound: Cc1cc(Nc2ccc(NC(=O)Cc3cccs3)cc2)nc(N2CCCC2)n1
Output: 595

Task: Return RP-LC retention time for the following compound: CCOC(=O)C(=O)NCc1nc(COc2ccc(OC)cc2)no1
Output: 716

---

# Protocol details: gradient 5% acetonitrile 3 min, to 50% in 2 min, to 85% in 15 min, held 3 min, 100 µL/min
# Details: column: Zorbax Extend-C18 2.1 x 50 mm; eluents: water / acetonitrile, 0.1% formic acid
Quantity: RP-LC retention time (s)
Express the result in s but write the number alone.

Task: Return RP-LC retention time for the following compound: Cn1cnnc1SCCNC(=O)CCc1cccc(Oc2ccc(F)cc2)c1
Output: 697

Task: Return RP-LC retention time for the following compound: O=C(c1cnccn1)N1CCCCC1c1nc(-c2ccc(F)cc2)no1 (centres undefined)
Output: 918

Task: Return RP-LC retention time for the following compound: COc1cccc(OCC(O)CN2CCN(c3ccc(F)cc3)CC2)c1 (centres undefined)
Output: 687

Task: Return RP-LC retention time for the following compound: COc1ccc(-c2noc(-c3nc(C)no3)n2)c(OC)c1
Output: 888

---

Could you please report measured RP-LC retention time for the items listed next?
# Protocol details: gradient 5% acetonitrile 3 min, to 50% in 2 min, to 85% in 15 min, held 3 min, 100 µL/min
# Details: column: Zorbax Extend-C18 2.1 x 50 mm; eluents: water / acetonitrile, 0.1% formic acid
Express the result in s but write the number alone.

Task: Return RP-LC retention time for the following molecule: Cn1c(=O)n(C)c2cc(S(=O)(=O)c3ccc(F)cc3)c(NC(=O)c3ccccc3F)cc21
Output: 882

Task: Return RP-LC retention time for the following molecule: CCCC(NC(=O)c1sccc1C)C(=O)Nc1nc2ccccc2[nH]1 (stereo not drawn)
Output: 686

Task: Return RP-LC retention time for the following molecule: CCCC(=O)Nc1ccc2c(c1)CN(C(=O)c1ccc(C)cc1C)C(C(=O)N(C)C)C2 (stereo not drawn)
Output: 760

Task: Return RP-LC retention time for the following molecule: Cc1noc(-c2cc(=O)n(CC(=O)Nc3ccc(F)c(F)c3)c3ccccc23)n1
Output: 890

Task: Return RP-LC retention time for the following molecule: Cc1nc(-c2noc(-c3ccccc3)n2)cn1CC(=O)NCc1ccc(Cl)cc1
Output: 866

Task: Return RP-LC retention time for the following molecule: COC(=O)c1c(NCCc2c[nH]c3ccccc23)c2cccc(Cl)c2[nH]c1=O
Output: 824

Task: Return RP-LC retention time for the following molecule: CCc1nc2c(NC(=O)c3ccc(F)c(Cl)c3)cccn2n1
Output: 924

Task: Return RP-LC retention time for the following molecule: Cc1ccc(N2CC(c3nc(-c4ccc5c(c4)nc(C)c(=O)n5C)no3)CC2=O)cc1C (stereo not drawn)
Output: 876
